# ASSAY_REMARKS: JC-1 mitochondrial signal, unstimulated HepG2 cells – cell-based, JC-1 fluorescence, 24 h, 100 nL compound, profiling panel (AID 1167); further: test concentration not given here
# MEASUREMENT_CONDITIONS: HepG2 mitochondrial potential, higher = more signal
// label = 1 if z-score is not less than -0.4, otherwise 0

Input: Determine whether this compound has z-score no lower than -0.4: O=C1C2C=CC(C(O)c3ccccn3)N(Nc3ccccc3)C2C(=O)N1c1ccccc1 (stereo not drawn)
Output: 0

###

# ASSAY_REMARKS: small molecules captured by biotinylated probe aFGF10 – biochemical, small-molecule microarray, fluorescence 635/667, stem cell growth factor project, primary screen (AID 1071);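 further: score merges 667 nm spot intensity and signal to noise from triplicate slides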
# MEASUREMENT_CONDITIONS: higher = more signal
PROPERTY_LABEL: composite z-score
One number for each entry.

Worked cases, composite z-score given:
# SMILES, composite z-score
data = [
    ("COC(=O)[C@H]1N=C(c2ccc(OCCCO)cc2)O[C@H]1c1ccccc1CN=[N+]=[N-]", -0.202),
    ("C=CCOC(=O)[C@@H]1[C@H]2C(=O)O[C@H](c3ccccc3)[C@H](c3ccccc3)N2[C@H](c2ccc(OCCOC(=O)[C@@H]3C[C@@H]4C(=O)N5CCC[C@H]5C(=O)N4[C@@H]3c3cccc(OCCO)c3)cc2)[C@@]12C(=O)Nc1ccc(I)cc12", 0.0951),
]

API: the following record is the query input.
Input: Need composite z-score, item CCOC(=O)C[C@H]1[C@H](OC(=O)c2ccc(C(=O)c3ccccc3)cc2)[C@@H](NC(=O)C2CCCCC2)c2cc(OCCCO)ccc2N1C(=O)Cc1ccc(OC)cc1
Output: 0.348

###

# TARGET_UNDER_TEST: Albumin (Bos taurus) (UniProt P02769)
# Sequence (P02769 whole entry, looked up): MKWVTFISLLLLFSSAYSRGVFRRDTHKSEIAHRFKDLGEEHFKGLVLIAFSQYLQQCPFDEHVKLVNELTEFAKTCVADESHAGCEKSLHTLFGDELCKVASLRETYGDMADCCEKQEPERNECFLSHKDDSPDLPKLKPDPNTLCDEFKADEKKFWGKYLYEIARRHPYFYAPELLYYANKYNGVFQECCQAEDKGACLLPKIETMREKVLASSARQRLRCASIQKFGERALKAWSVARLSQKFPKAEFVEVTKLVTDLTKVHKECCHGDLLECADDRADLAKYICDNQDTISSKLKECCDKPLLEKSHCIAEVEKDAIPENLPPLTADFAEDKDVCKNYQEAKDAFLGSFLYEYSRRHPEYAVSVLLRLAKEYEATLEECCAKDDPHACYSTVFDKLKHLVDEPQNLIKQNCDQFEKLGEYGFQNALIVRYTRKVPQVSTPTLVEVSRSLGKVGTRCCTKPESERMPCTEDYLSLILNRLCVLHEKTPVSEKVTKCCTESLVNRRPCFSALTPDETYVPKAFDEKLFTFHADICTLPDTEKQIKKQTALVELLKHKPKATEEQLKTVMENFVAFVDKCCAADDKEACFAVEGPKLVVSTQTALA
# ASSAY_REMARKS: compounds binding labelled BSA control protein – biochemical, small-molecule microarray, Alexa647 label, 635/667 nm fluorescence, artefact control for SMM control protein annotation, profiling panel (AID 1118);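 further: score merges 667 nm emission intensity and signal-to-noise per printed compound spot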
# MEASUREMENT_CONDITIONS: BSA-A647 binding, fluorescence 635 nm, higher = more signal
// label = label 1 if composite z-score is not less than 0.6, otherwise label 0

Worked set:
# COMPOUND, LABEL_VALUE
data = [
    ("C=CC[C@]1(C(=O)N(C)C)N=C(c2ccc(OCCCO)cc2)O[C@H]1c1ccccc1", "label 1"),
    ("CCCN1C(=O)[C@@H]2Cc3c([nH]c4ccccc34)[C@@H](c3cccc(O)c3)N2C1=O", "label 0"),
    ("COCCCNC(=O)[C@@]1(Cc2ccccc2)COC(c2ccc(OCCCO)cc2)=N1", "label 1"),
    ("O=C(O)[C@@]1(Cc2ccccc2)COC(c2ccc(OCCCO)cc2)=N1", "label 0"),
]

Input: Determine whether this compound has composite z-score no lower than 0.6: C=CC[C@@]1(C(=O)NCC(O)CO)N=C(c2ccc(OCCCO)cc2)O[C@@H]1c1ccccc1 (stereo partly specified)
Output: label 1

Input: Determine whether this compound has composite z-score no lower than 0.6: CCCCC(=C=CC[C@H](O)c1ccccc1OCCO)C[C@H](O)c1ccccn1
Output: label 0

Input: Determine whether this compound has composite z-score no lower than 0.6: CC(C)C[C@H]1NC(=O)[C@H](C)NC(=O)[C@@]23C(=O)N[C@@H](Cc4ccccc4)C2[C@H](C)[C@@]2(C)O[C@H]2C3/C=C/C/C=C\CNC1=O (stereo partly specified)
Output: label 1

Input: Determine whether this compound has composite z-score no lower than 0.6: CC(=O)NCCCC[C@@H]1NC(=O)[C@H]2C[C@@H](C(=O)NCCCCCN)[C@@H](c3cccc(OCCO)c3)N2C1=O
Output: label 1

Input: Determine whether this compound has composite z-score no lower than 0.6: CN(C)C(=O)[C@@]1(CCS(=O)(=O)c2ccccc2)N=C(c2ccc(OCCCO)cc2)O[C@H]1c1ccccc1CN=[N+]=[N-]
Output: label 1

###

# ASSAY_REMARKS: growth modulation of vineyard yeast isolate – strain RM11-1a, OD600, basal, 24 h, primary screen (AID 1177);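 further: cultures grown under basal conditions with no added stressor; test concentration not given here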
# MEASUREMENT_CONDITIONS: S. cerevisiae RM11-1a growth, OD600, 24 h; higher = more signal, called active from +8 up or from −8 down
PROPERTY_LABEL: z-score
Answers are plain numbers.

Worked cases, z-score given:
# COMPOUND, PROPERTY_LABEL, READOUT_NUMBER
records = [
    ("COc1cc(C(O)C2C=CC3C(=O)N(C)C(=O)C3N2NC(=O)OC(C)(C)C)cc(OC)c1OC (centres undefined)", "z-score", 0.796),
    ("COc1cc(NN2C(C(O)c3ccc(I)cc3)C=CC3C(=O)N(C)C(=O)C32)cc(OC)c1OC (centres undefined)", "z-score", -0.377),
    ("CC(C)CNC(=O)[C@@]1(c2ccc([N+](=O)[O-])cc2)CC(=O)N(C(C)C)[C@@H]1c1ccc(CO)cc1", "z-score", -0.738),
]

API: the following record is the query input.
Input: Need z-score, item [N-]=[N+]=Nc1ccccc1C[C@]1(C(=O)NCCN2CCOCC2)N=C(c2ccc(OCCCO)cc2)O[C@H]1c1ccccc1N=[N+]=[N-]
Output: -0.505

###

Could you please report measured z-score for the items listed next?
# ASSAY_REMARKS: ATP-based viability of Huh7 replicon cells – cell-based, CellTiter-Glo luminescence, basal, 48 h, cytotoxicity control for HCV replication inhibitor project, primary screen (AID 1143);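 further: Huh7 hepatoma cells carrying a hepatitis C replication reporter with no stimulus; test concentration not given here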
# MEASUREMENT_CONDITIONS: higher = more signal, called active from +8 up or from −8 down
Numbers only.

Worked cases, z-score given:
# COMPOUND, READOUT_NUMBER
rows = [
    ("COCCOC(=O)N1C(=O)[C@@]2(c3cc(C#CCNC(N)=O)ccc31)[C@H](C(=O)N1CCCCCCC1)[C@H]1C(=O)O[C@H](c3ccccc3)[C@H](c3ccccc3)N1[C@@H]2c1ccc(OCCO)cc1", -0.897),
    ("C=CCC(OC(C)=O)[C@@H]1[C@@H](N(Cc2ccc(-c3cccc(C(F)(F)F)c3)o2)C(=O)c2cccc3ccccc23)c2cc(OCCCO)ccc2N1C(=O)c1ccc(-c2ccccc2)cc1 (some centres undefined)", -1.63),
    ("O=C1c2ccccc2C(=O)C2CC([C@H]3Oc4ccccc4S(=O)(=O)N4CCC[C@@H]34)=CCC12 (some centres undefined)", -3.06),
]

API: the following record is the query input.
Input: Need z-score, item O=C(O)[C@]1(CCS(=O)(=O)c2ccccc2)N=C(c2ccc(OCCCO)cc2)O[C@@H]1c1ccccc1
Output: 0.495

###

Could you please report measured composite z-score for the items listed next?
# TARGET_UNDER_TEST: Streptavidin (Streptomyces avidinii)
# ASSAY_REMARKS: compounds binding control protein streptavidin – biophysical, small-molecule microarray, 635/667 nm fluorescence, artefact control for SMM compound annotation, primary screen (AID 1147);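 further: signal reflects streptavidin binding to arrayed compounds as a control protein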
# MEASUREMENT_CONDITIONS: higher = more signal
Numbers only.

Here are 8 compounds. What values of composite z-score were reported for them?
1. CC(C)[Si](C#C[Si](C(C)C)(C(C)C)C(C)C)(O[C@H](C)c1cn(Cc2cccc(Cl)c2)nn1)C(C)C
2. COc1ccccc1CN1C(=O)c2ccccc2[C@@]2(Cc3ccccc3N(C3CC3)C2=O)[C@@H]1c1ccc(CO)cc1
3. COC(=O)C(CC#Cc1ccc2c(c1)[C@]1(C(=O)N2)[C@H](C(=O)N2CCc3cc(OC)c(OC)cc3C2)[C@H]2C(=O)O[C@H](c3ccccc3)[C@H](c3ccccc3)N2[C@@H]1c1ccc(OCCO)cc1)C(=O)OC
4. COC(=O)[C@@]1(Cc2ccccc2)[C@H]2c3cc(C(=O)N4CCCC4)n(CCO)c3C[C@H]2CN1C(=O)c1ccccc1
5. C[N+](C)(C)CCCCCCNC(=O)[C@H]1C[C@H]2C(=O)N3CCC[C@H]3C(=O)N2[C@H]1c1cccc(OCCO)c1
6. COCCOC(=O)N1C(=O)[C@@]2(c3cc(C#Cc4ccc(OC)cc4)ccc31)[C@H](C(=O)N1CCc3cc(OC)c(OC)cc3C1)[C@H]1C(=O)O[C@H](c3ccccc3)[C@H](c3ccccc3)N1[C@@H]2c1ccc(O)cc1
7. CCCC=C(CCC)[C@@H](NS(=O)(=O)CC)c1ccccc1
8. O=C1O[C@@H](c2ccccc2)[C@@H](c2ccccc2)N2[C@@H](c3ccc(O)cc3)[C@]3(C(=O)Nc4ccc(C#CC5=CCCCC5)cc43)[C@@H](C(=O)Nc3nc4ccccc4s3)[C@H]12

Output:
1: 0.534; 2: -0.189; 3: 1.28; 4: 1.97; 5: -0.278; 6: 0.802; 7: 1.08; 8: 1.26

Input: Need composite z-score, item CC1C=C(CCCO)C=C(C(=O)OCCS(C)(=O)=O)C(C(=O)OCCS(C)(=O)=O)=CN1Cc1cccc(OC(F)(F)F)c1 (centres undefined)
Output: 1.28
